Assay: qHTS Assay for Spectroscopic Profiling in A350 Spectral Region
Details: Compound autofluorescence, 340/450 nm, Alexa 350 dye-equivalents; hits give high values
Text: NIH Molecular Libraries Screening Centers Network [MLSCN] NIH Chemical Genomics Center [NCGC] Occasionally, the artifactual effect may originate from the compounds own spectral or other biophysical properties which generally tend to track its assay concentration. […] A standard curve of Alexa 350 (A 350) present on each plate as six-point concentration series, was used to compute a normalized fluorescence response, termed dye-equivalent concentration, for each compound at each concentration. […]
The campaign covered roughly 59,000 compounds. About 6,500 (11%) were called active. About 15% were inconclusive and are not listed. The entries come from a sample that favours actives as a whole.
VALUE_KIND: max dye-equivalent concentration

CCN(CC)CCn1ncc2c(N)ncnc21 : inactive
CC[C@@](O)(C(=O)O)c1cc2n(c(=O)c1CO)Cc1cc3ccccc3nc1-2 : 0.92 µM (active)
CN1[C@@H]2CC[C@H]1CC(OC(=O)c1cc(Cl)cc(Cl)c1)C2 (stereo partly specified) : inactive
NCCc1c[nH]c2ccc(O)cc12 : inactive
N[C@H](C(=O)O)c1cc(=O)[nH]o1 : inactive
c1ccc2c(c1)[I+]c1ccccc1-2 : inactive
NCC[Se][Se]CCN : inactive
CC[C@]1(O)C(=O)OCc2c1cc1n(c2=O)Cc2cc3ccccc3nc2-1 : 2.6 µM (active)
CCOC(=O)c1c(N)n(Cc2ccccc2)c2nc3ccccc3nc12 : 1.5 µM (active)
C[C@]12CC[C@H](O)CC1=CC[C@@H]1[C@H]2CC[C@]2(C)C(=O)CC[C@H]12 : inactive

For the next question, use this molecule.
Quick check: max dye-equivalent concentration of O=C1C2CCN(CC2)C1(CO)CO ?
inactive

From: PubChem BioAssay AID590
